target: GK (glucokinase, residues 12-465) (Homo sapiens); construct: I.D. No. 1 corresponds to residues 12-465 of glucokinase; made in house; host or cells: DH10b-T1r E. coli; assay: enzymatic glucokinase activity assay (ATP consumption, KinaseGlo luminescence); assay type: biochemical; details: calculated maximal gain in GK enzyme activity at a saturating concentration of the compound; 5 μM ATP, 5 mM Glucose; reported as bins; read-out: % ACTmax
Reported Emax values for the following compounds.

**Query** Reported Emax for GK (glucokinase, residues 12-465) (Homo sapiens), given O=C1CC[C@H](C[C@@H](C(=O)Nc2ncc(Cl)s2)n2ncc3c(S(=O)(=O)C4CC4)cccc32)C1 ?
**Result** 101 to 105%

**Query** State its Emax on GK (glucokinase, residues 12-465) (Homo sapiens): O=C(Nc1cccc(F)n1)C(CC1CCOCC1)n1ncc2c(S(=O)(=O)C3CC3)cccc21 (centres unmarked)
**Result** ≥ 111%

**Query** What Emax appears in the records for this compound with GK (glucokinase, residues 12-465) (Homo sapiens)? O=C(Nc1ncc(F)s1)[C@@H](CC1CCOCC1)n1ncc2c(S(=O)(=O)C3CC3)cc(Cl)cc21
**Result** ≤ 90%

**Query** Look up Emax with GK (glucokinase, residues 12-465) (Homo sapiens) for this compound: O=C(Nc1cnccn1)C(CC1CCOCC1)n1cc(S(=O)(=O)C2CC2)cn1 (centres unmarked)
**Result** 101 to 105%

**Query** Record lookup: for GK (glucokinase, residues 12-465) (Homo sapiens), what Emax belongs to O=C(Nc1ncc(Cl)s1)[C@@H](CC1CCOCC1)n1ncc2c(S(=O)(=O)C3CC3)cccc21 ?
**Result** ≥ 111%

**Query** Item: COc1cc(S(=O)(=O)C2CC2)c2cnn([C@H](CC3CCOCC3)C(=O)Nc3ncc(F)s3)c2c1 Test system: GK (glucokinase, residues 12-465) (Homo sapiens) Read-out: Emax Value: ?
**Result** ≤ 90%

**Query** Find the measured Emax: item O=C(Nc1ncc(F)s1)[C@H](CC1CCOCC1)n1ncc2c(S(=O)(=O)C3CC3)cccc21 , target or system GK (glucokinase, residues 12-465) (Homo sapiens).
**Result** 106 to 110%

**Query** What value of Emax on GK (glucokinase, residues 12-465) (Homo sapiens) does COc1ccc2c(cnn2C(CC2CCOCC2)C(=O)Nc2cnccn2)c1S(=O)(=O)C1CC1 (centres unmarked) have?
**Result** 101 to 105%

**Query** What measured Emax is associated with O=C(Nc1ncc(F)s1)C(CC1CCOCC1)n1cc(S(=O)(=O)C2CC2)cn1 (centres unmarked) on GK (glucokinase, residues 12-465) (Homo sapiens)?
**Result** ≥ 111%

**Query** Observed Emax on GK (glucokinase, residues 12-465) (Homo sapiens) for COc1cc(S(=O)(=O)C2CC2)c2cnn(C(CC3CCOCC3)C(=O)Nc3ncc(F)s3)c2c1 (centres unmarked) , please.
**Result** ≤ 90%

**Query** Query for GK (glucokinase, residues 12-465) (Homo sapiens): what Emax does the record show for O=C(Nc1ncc(F)s1)C(CC1CCOCC1)n1ncc2c(S(=O)(=O)C3CC3)cc(F)cc21 (centres unmarked) ?
**Result** 106 to 110%

----------
Target: GK (glucokinase, residues 12-465) (Homo sapiens, UniProt P35557)
Construct: I.D. No. 1 corresponds to residues 12-465 of glucokinase
Sequence (P35557 with tags, fused parts or gaps isoform P35557-2): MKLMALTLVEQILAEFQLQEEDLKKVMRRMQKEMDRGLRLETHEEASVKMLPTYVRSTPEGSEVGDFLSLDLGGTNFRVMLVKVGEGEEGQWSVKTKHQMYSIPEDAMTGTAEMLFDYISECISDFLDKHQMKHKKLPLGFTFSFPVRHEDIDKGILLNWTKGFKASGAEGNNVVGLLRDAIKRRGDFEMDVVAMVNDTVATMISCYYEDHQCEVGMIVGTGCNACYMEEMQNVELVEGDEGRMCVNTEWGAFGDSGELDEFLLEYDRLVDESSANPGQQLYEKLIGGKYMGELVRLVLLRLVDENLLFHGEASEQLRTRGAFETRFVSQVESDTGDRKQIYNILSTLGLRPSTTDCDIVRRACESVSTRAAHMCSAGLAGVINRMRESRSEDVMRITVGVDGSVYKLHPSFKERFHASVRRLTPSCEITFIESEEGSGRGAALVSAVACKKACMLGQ
Test: enzymatic glucokinase activity assay (ATP consumption, KinaseGlo luminescence)
Conditions: Kact = concentration that displays 50% of the maximal increase in GK activity; 5 μM ATP, 5 mM Glucose, 60 min, room temperature; reported as bins; read-out: pKact
pEC50: −log10 of the molar value.
Metric Name: pEC50

O=C(Nc1ncc(F)s1)[C@H](CC1CCOCC1)n1ncc2c(S(=O)(=O)C3CC3)cccc21 [Compound 69] = ≥ 6.50
O=C(Nc1ncc(Cl)s1)C(CC1CCOCC1)n1cc2c(S(=O)(=O)C3CC3)cccc2n1 (centres unmarked) [Compound 70] = 5.50 to 5.80
COc1ccc2c(cnn2[C@H](CC2CCOCC2)C(=O)Nc2ncc(F)s2)c1S(=O)(=O)C1CC1 [Compound 81] = 4.90 to 5.40

**Query** Recorded pEC50 of O=C(Nc1ncc(Cl)s1)[C@@H](CC1CCOCC1)n1ncc2cc(S(=O)(=O)C3CC3)ccc21 [Compound 47] , please.
**Result** 4.90 to 5.40

**Query** What value of measured pEC50 is listed for COc1ccc2c(cnn2C(CC2CCOCC2)C(=O)Nc2ncc(F)s2)c1S(=O)(=O)C1CC1 (centres unmarked) [Compound 80] ?
**Result** ≥ 6.50
